Can you tell me protein stability index for the items I'm about to list?
- Test system: Saccharomyces cerevisiae
- protocol-text: protein stability index of tFT-peptide fusion (C-terminal peptide) (PSI (0-1 scale)); higher = more stable (slower turnover)
- measurement-context: genetic background: das1 deletion; temperature: 30 C
Provide a numeric answer; units are not to be included.

QUERY: State its protein stability index for this sequence: ENISSPLGKKSR [PSY4 C-terminal 12 aa]
RESULT: 0.691

QUERY: Please give the documented protein stability index of HFLQKFFKLFDN [YMR052C-A C-terminal 12 aa]
RESULT: 0.734

QUERY: Return reported protein stability index. Input sequence: NTESSCGFFQWV [APN2 C-terminal 12 aa]
RESULT: 0.727

QUERY: Name the recorded protein stability index of the item GLSPIRYFIPQH [YNL114C C-terminal 12 aa] in your answer.
RESULT: 0.659

QUERY: // fetch protein stability index given entry VACDSDSSSTIE [YEN1 C-terminal 12 aa]
RESULT: 0.679

QUERY: Look up protein stability index of GDYSFNGRVTDF [SDH8 C-terminal 12 aa] and report it.
RESULT: 0.711

QUERY: Specify reported protein stability index for the sequence shown: ESIEELLRKTLE [ZNG1 C-terminal 12 aa]
RESULT: 0.687

QUERY: Check the records and state protein stability index for SATFTSDHIGHI [RIM21 C-terminal 12 aa]
RESULT: 0.717

QUERY: Answer with the recorded protein stability index of VFLVISQHSLHS [YDR545C-A C-terminal 12 aa] only.
RESULT: 0.654

QUERY: Check the records and state protein stability index for NRVVLVDHNSSS [IRS4 C-terminal 12 aa]
RESULT: 0.72

QUERY: For the sequence ATMALRKLVSRE [MSA2 C-terminal 12 aa] , report protein stability index.
RESULT: 0.693

QUERY: Answer with the recorded protein stability index for the sequence listed here: DKKLARAGNNAI [CUE3 C-terminal 12 aa]
RESULT: 0.695

QUERY: // fetch protein stability index given entry IRDEGLNNLDTA [YPL257W C-terminal 12 aa]
RESULT: 0.694

QUERY: // Input: HDDKPWYKAMLE [GAL2 C-terminal 12 aa] . Output its protein stability index only.
RESULT: 0.749

QUERY: Consider the sequence EDRQAFFDSLKE [YGK1 C-terminal 12 aa] . State its measured protein stability index.
RESULT: 0.724

QUERY: State, in one line, measured protein stability index of RLNKLEAVLQTL [PML39 C-terminal 12 aa]
RESULT: 0.685

QUERY: Given the sequence KFPLSVKKKIRI [YNR075C-A C-terminal 12 aa] , write its reported protein stability index.
RESULT: 0.682

QUERY: Supply protein stability index value. Item: DFIRGVAVFMHI [YMR272W-A C-terminal 12 aa]
RESULT: 0.691

QUERY: Quote protein stability index reported for AYIDTSIPNLLL [REG2 C-terminal 12 aa] please.
RESULT: 0.707

QUERY: Fill in reported protein stability index for this entry: LNDIGDPTKTVQ [YPL025C C-terminal 12 aa]
RESULT: 0.689

QUERY: // fetch protein stability index given entry STATGKLKKRKM [RAD2 C-terminal 12 aa]
RESULT: 0.718

QUERY: Give me measured protein stability index, please, for this sequence: FFHRISHFLESA [YLR299C-A C-terminal 12 aa]
RESULT: 0.704

QUERY: Give protein stability index for DIISFTSTLHGG [URM1 C-terminal 12 aa]
RESULT: 0.727

QUERY: Fill in protein stability index for record RDMVELMKFYEL [HOS1 C-terminal 12 aa]
RESULT: 0.715
